- Subject Of Test: G protein-coupled receptor 88 (Homo sapiens, UniProt Q9GZN0)
- Sequence (Q9GZN0 whole entry): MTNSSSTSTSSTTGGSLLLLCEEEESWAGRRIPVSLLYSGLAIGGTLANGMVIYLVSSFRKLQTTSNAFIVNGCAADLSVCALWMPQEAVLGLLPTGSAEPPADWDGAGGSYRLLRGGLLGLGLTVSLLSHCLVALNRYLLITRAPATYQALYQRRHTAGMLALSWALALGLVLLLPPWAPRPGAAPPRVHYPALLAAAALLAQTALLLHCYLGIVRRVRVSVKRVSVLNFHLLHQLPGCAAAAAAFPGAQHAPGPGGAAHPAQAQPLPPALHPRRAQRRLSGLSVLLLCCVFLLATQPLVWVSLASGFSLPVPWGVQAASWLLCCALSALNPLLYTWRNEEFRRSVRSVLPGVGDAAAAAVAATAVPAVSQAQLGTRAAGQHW
- Method Notes: Agonist activity at PPLS-HA-tagged-GPR88 (unknown origin) expressed in CHO cells assessed as inhibition of forskolin-stimulated cAMP production measured after 30 mins by TR-FRET assay
- Assay type: functional, cell-based
Metric: pEC50
pEC50 field: float, defined as -log10 of concentration (mol/L).

In the examples that follow, each entry is paired with its recorded pEC50.
> print(dat)
                                   compound  metric  measured.number
1  CCCC(C)COc1ccc([C@@H](NC(=O)Cc2ccccc2F)C(=O)OC)cc1 (stereo partly specified)   pEC50             5.10
2  CCCC(C)COc1ccc([C@H](CO)NC(=O)CCc2ccccc2)cc1 (stereo partly specified)   pEC50             6.46
3  CCCC(C)COc1ccc([C@@H](NC(=O)[C@@H](C)c2ccccc2)C(=O)OC)cc1 (stereo partly specified)   pEC50             6.27

input: What value of measured pEC50 is listed for CCCC(C)COc1ccc([C@@H](NC(=O)Cc2ccc(F)cc2)C(=O)OC)cc1 (stereo partly specified) ?
output: 5.23

input: What value of measured pEC50 is listed for CCCC(C)COc1ccc([C@H](CO)NC(=O)[C@@H](CC)c2ccccc2)cc1 (stereo partly specified) ?
output: 6.84

input: What value of measured pEC50 is listed for CCCC(C)COc1ccc([C@@H](NC(=O)Cc2ccc(OC)cc2)C(=O)OC)cc1 (stereo partly specified) ?
output: 5.02

input: What value of measured pEC50 is listed for CCCC(C)COc1ccc([C@@H](NC(=O)[C@@H](CC)c2ccccc2)C(=O)OC)cc1 (stereo partly specified) ?
output: 6.23

input: What value of measured pEC50 is listed for CCCC(C)COc1ccc([C@@H](NC(=O)Cc2ccccc2)C(=O)OC)cc1 (stereo partly specified) ?
output: 5.58

input: What value of measured pEC50 is listed for CCCC(C)COc1ccc([C@H](CN=[N+]=[N-])NC(=O)[C@@H](C)c2ccccc2)cc1 (stereo partly specified) ?
output: 6.87

input: What value of measured pEC50 is listed for CCCC(C)COc1ccc([C@H](CO)NC(=O)Cc2ccccc2)cc1 (stereo partly specified) ?
output: 6.31

input: What value of measured pEC50 is listed for CCCC(C)COc1ccc([C@H](CO)NC(=O)CCCc2ccccc2)cc1 (stereo partly specified) ?
output: 5.84

input: What value of measured pEC50 is listed for CCCC(C)COc1ccc([C@@H](NC(=O)Cc2cccc(F)c2)C(=O)OC)cc1 (stereo partly specified) ?
output: 5.41

input: What value of measured pEC50 is listed for CCCC(C)COc1ccc([C@@H](NC(=O)Cc2ccc(C)cc2)C(=O)OC)cc1 (stereo partly specified) ?
output: 5.43

====

Parameter EC50: see the listing below.
- Subject Of Test: UniProt Q9GZN0
- Method Notes: Agonist activity at PPLS-HA-tagged-GPR88 (unknown origin) expressed in CHO cells assessed as inhibition of forskolin-stimulated cAMP production measured after 30 mins by TR-FRET assay

In the examples that follow, each entry is paired with its recorded EC50.
> print(dat)
                                   compound  metric   result
1  CCCC(C)COc1ccc([C@@H](NC(=O)[C@@H](C)c2ccccc2)C(=O)O)cc1 (stereo partly drawn)    EC50  > 10 µM
2  CCCC(C)COc1ccc([C@@H](NC(=O)Cc2ccc(C#N)cc2)C(=O)OC)cc1 (stereo partly drawn)    EC50  > 10 µM

In the following, a different compound is considered.
input: What value of measured EC50 is listed for CCCC(C)COc1ccc([C@@H](NC(=O)C(C)C2CCCCC2)C(=O)OC)cc1 (mixture of isomers) ?
output: > 10 µM
